- Tested target: FGFR2^V564I (Homo sapiens, UniProt P21802, V564I)
- Construct: FGFR2 (residues 458–768); 6×His (PreScission-cleavable) (N, cleaved yes); made in house; host or cells: E. coli BL21 Rosetta
- Sequence (P21802 458-768 V564I): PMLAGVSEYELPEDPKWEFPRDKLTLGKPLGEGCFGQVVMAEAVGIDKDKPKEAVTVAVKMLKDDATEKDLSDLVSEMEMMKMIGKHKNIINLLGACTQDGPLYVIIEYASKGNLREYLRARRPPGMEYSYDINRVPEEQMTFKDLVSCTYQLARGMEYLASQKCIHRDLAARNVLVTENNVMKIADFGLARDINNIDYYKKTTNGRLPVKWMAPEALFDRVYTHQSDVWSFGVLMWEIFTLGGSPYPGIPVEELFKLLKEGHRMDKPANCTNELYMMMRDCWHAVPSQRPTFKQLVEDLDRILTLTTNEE
- Test details: Kinase inhibition assay (ADP-Glo), FGFR2 V564I gatekeeper mutant
- Format: biochemical
- Condition label: bound stated, read-out: IC50 for FGFR2^V564I
pIC50: −log10 of the molar value.
Measurement label: pIC50

{"Smiles repr": "Cc1cc2cc(Oc3ccnc(Nc4cccc(CS(=O)(=O)NCCN(C)C)c4)n3)ccc2[nH]1", "Meas value": "< 5.70"}

====

- Tested target: FGFR2^V564F (Homo sapiens, UniProt P21802, V564F)
- Construct: FGFR2 (residues 458–768); 6×His (PreScission-cleavable) (N, cleaved yes); made in house; host or cells: E. coli BL21 Rosetta
- Sequence (P21802 458-768 V564F): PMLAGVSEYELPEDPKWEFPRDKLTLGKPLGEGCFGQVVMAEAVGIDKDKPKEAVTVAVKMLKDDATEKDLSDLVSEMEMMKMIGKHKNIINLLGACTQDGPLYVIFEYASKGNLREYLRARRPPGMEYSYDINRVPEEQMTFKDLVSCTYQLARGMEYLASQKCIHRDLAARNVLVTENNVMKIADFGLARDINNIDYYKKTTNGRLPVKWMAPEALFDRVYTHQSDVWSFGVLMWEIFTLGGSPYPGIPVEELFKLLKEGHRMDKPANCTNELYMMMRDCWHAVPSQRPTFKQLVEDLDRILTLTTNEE
- Test details: Kinase inhibition assay (ADP-Glo), FGFR2 V564F gatekeeper mutant
- Assay type: biochemical
- Condition label: ADP-Glo, read-out: Kinase inhibitory activity FGFR2^V564F IC50
Measurement label: IC50

{"Molecule": "Cc1cc2cc(Oc3ccnc(Nc4cccc(CS(=O)(=O)NCCN(C)C)c4)n3)ccc2[nH]1 [sulfatinib]", "Meas value": "2970 nM"}

====

- Tested target: FGFR4 (Homo sapiens, UniProt P22455)
- Sequence (P22455 445-753): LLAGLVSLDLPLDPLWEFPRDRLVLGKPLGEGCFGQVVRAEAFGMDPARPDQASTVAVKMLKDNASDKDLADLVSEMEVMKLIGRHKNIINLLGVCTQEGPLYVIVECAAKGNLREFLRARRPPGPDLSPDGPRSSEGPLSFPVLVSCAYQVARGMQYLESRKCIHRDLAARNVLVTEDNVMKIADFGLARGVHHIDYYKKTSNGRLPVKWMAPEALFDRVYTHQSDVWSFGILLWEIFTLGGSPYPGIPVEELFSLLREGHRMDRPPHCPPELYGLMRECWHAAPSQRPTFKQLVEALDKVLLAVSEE
pIC50: −log10 of the molar value.

{"Smiles repr": "Cc1cc2cc(Oc3ccnc(Nc4cccc(CS(=O)(=O)NCCN(C)C)c4)n3)ccc2[nH]1", "pIC50": 6.05}

====

- Tested target: FGFR1^V561M (Homo sapiens, UniProt P11362, V561M)
- Construct: FGFR1 (residues 458–765); 6×His (PreScission-cleavable) (N, cleaved yes); made in house; host or cells: E. coli BL21 Rosetta
- Sequence (P11362 458-765 V561M): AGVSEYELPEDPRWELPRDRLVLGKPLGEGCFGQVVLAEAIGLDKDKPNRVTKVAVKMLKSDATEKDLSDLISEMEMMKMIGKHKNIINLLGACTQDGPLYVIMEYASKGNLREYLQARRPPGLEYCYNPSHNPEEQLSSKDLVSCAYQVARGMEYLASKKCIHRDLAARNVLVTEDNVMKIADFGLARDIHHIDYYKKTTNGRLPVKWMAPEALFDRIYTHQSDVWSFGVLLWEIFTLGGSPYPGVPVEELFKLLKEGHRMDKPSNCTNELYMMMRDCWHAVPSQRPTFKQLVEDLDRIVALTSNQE
- Test details: Kinase inhibition assay (ADP-Glo), FGFR1 V561M gatekeeper mutant
- Assay type: biochemical
- Condition label: bound stated, read-out: IC50 for FGFR1^V561M
pIC50: −log10 of the molar value.

{"Smiles repr": "Cc1cc2cc(Oc3ccnc(Nc4cccc(CS(=O)(=O)NCCN(C)C)c4)n3)ccc2[nH]1", "Tested target": "FGFR1^V561M (Homo sapiens, UniProt P11362, V561M)", "pIC50": "< 5.70"}

====

- Tested target: FGFR1^V561M (Homo sapiens, UniProt P11362, V561M)
- Construct: FGFR1 (residues 458–765); 6×His (PreScission-cleavable) (N, cleaved yes); made in house; host or cells: E. coli BL21 Rosetta
- Test details: Kinase inhibition assay (ADP-Glo), FGFR1 V561M gatekeeper mutant
- Format: biochemical
- Condition label: ADP-Glo, read-out: Kinase inhibitory activity FGFR1^V561M IC50
pIC50: −log10 of the molar value.

{"Compound": "Cc1cc2cc(Oc3ccnc(Nc4cccc(CS(=O)(=O)NCCN(C)C)c4)n3)ccc2[nH]1 [sulfatinib]", "pIC50": "< 5.30"}

====

- Tested target: FGFR3^V555M (Homo sapiens, UniProt P22607, V555M)
- Construct: FGFR3 (residues 450–758); 6×His (PreScission-cleavable) (N, cleaved yes); made in house; host or cells: E. coli BL21 Rosetta
- Sequence (P22607 450-758 V555M): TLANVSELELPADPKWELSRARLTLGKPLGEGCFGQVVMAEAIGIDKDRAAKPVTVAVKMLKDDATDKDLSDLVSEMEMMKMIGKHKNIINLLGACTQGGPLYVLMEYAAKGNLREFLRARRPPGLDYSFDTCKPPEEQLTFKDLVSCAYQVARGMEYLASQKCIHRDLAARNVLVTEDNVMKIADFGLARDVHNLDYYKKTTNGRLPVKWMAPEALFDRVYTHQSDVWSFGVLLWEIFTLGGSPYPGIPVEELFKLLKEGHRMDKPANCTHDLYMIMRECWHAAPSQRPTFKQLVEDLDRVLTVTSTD
- Test details: Kinase inhibition assay (ADP-Glo), FGFR3 V555M gatekeeper mutant
- Format: biochemical
- Condition label: bound stated, read-out: IC50 for FGFR3^V555M
pIC50: −log10 of the molar value.

{"Smiles repr": "Cc1cc2cc(Oc3ccnc(Nc4cccc(CS(=O)(=O)NCCN(C)C)c4)n3)ccc2[nH]1", "pIC50": "< 5.70"}
